Tested on: HSkMC
Test: cytotoxicity call (relative viability < 0.9)
Conditions: 10 µM
In all, about 39,000 compounds went through this assay and about 1,500 (3.8%) were called active. This excerpt belongs to a sample that is enriched for actives.
Can you answer with just one of these options? active, inactive

[[record]]
smiles_data = "CN1CCC2(CC1)CN(C(=O)CNC(N)=O)CCCN2C"
class = "inactive"


Which outcome was entered for the compound COc1ccc(CN(C)C[C@@H]2OCCCC[C@@H](C)Oc3ccc(NC(=O)Nc4ccc(C(F)(F)F)cc4)cc3C(=O)N([C@@H](C)CO)C[C@@H]2C)cc1 in this test?
active

Ok, now C[C@H]1CCCCO[C@H](CN(C)Cc2ccccc2)[C@@H](C)CN([C@@H](C)CO)C(=O)c2cc(NC(=O)Nc3ccc(C(F)(F)F)cc3)ccc2O1
active

Ok, now C[C@@H]1CCCCO[C@H](CN(C)Cc2ccccc2)[C@H](C)CN([C@@H](C)CO)C(=O)c2cc(NC(=O)Nc3ccc(C(F)(F)F)cc3)ccc2O1
active

Ok, now COc1ccc(S(=O)(=O)Nc2ccc3c(c2)C(=O)N([C@@H](C)CO)C[C@H](C)[C@@H](CN(C)C(=O)c2ccccc2)OCCCC[C@H](C)O3)cc1
inactive

Ok, now COc1ccc(NC(=O)Nc2ccc3c(c2)C(=O)N([C@@H](C)CO)C[C@H](C)[C@@H](CN(C)Cc2ccc(C(F)(F)F)cc2)OCCCC[C@H](C)O3)cc1
inactive

Ok, now COc1ccc(CN(C)C[C@H]2OCCCC[C@H](C)Oc3ccc(NC(=O)Nc4ccc(C(F)(F)F)cc4)cc3C(=O)N([C@H](C)CO)C[C@H]2C)cc1
active

====

Test system: HSkMC
Assay: cytotoxicity call (relative viability < 0.9)
Conditions: 10 µM
The campaign covered roughly 39,000 compounds. About 1,500 (3.8%) were called active. For the sample, actives were picked, then their nearest neighbours and some compounds at random.
Can you answer with just one of these options? active, inactive

Known results for compounds:
[[record]]
smiles_data = "O=C(C[C@H]1C[C@H]2c3cc(NC(=O)NC4CCCC4)ccc3O[C@H]2[C@@H](CO)O1)NCc1ccc(-c2ccccc2)cc1"
target_of_assay = "HSkMC"
class = "inactive"

[[record]]
smiles_data = "C[C@@H]1CN([C@@H](C)CO)C(=O)c2cc(NC(=O)CCN3CCOCC3)ccc2O[C@@H]1CN(C)S(C)(=O)=O"
target_of_assay = "HSkMC"
class = "inactive"


Which outcome was entered for the compound CS(=O)(=O)Nc1ccc2c(c1)[C@@H]1C[C@@H](CC(=O)NCc3ccc(-c4ccccc4)cc3)O[C@H](CO)[C@@H]1O2 in this test?
inactive

Ok, now O=C(C[C@@H]1C[C@H]2c3cc(NC(=O)NC4CCCC4)ccc3O[C@H]2[C@H](CO)O1)NCc1ccc(-c2ccccc2)cc1
active

Ok, now C[C@H]1CN([C@@H](C)CO)C(=O)Cc2cc(NS(=O)(=O)c3ccccc3)ccc2O[C@H]1CN(C)Cc1ccc(Cl)c(Cl)c1
inactive

Ok, now CCOC(=O)C1CCN(S(=O)(=O)c2c(C)n(C)c(=O)n(C)c2=O)CC1
inactive

Ok, now O=C(C[C@@H]1CC[C@H](NC(=O)CN2CCOCC2)[C@@H](CO)O1)NCc1cccc(F)c1
inactive

Ok, now CC(C)NC(=O)Nc1ccc2c(c1)CC(=O)N([C@@H](C)CO)C[C@H](C)[C@@H](CN(C)C(=O)NC1CCCCC1)O2
inactive

====

Tested on: HSkMC
Experiment: cytotoxicity call (relative viability < 0.9)
Conditions: 10 µM
In all, about 39,000 compounds went through this assay and about 1,500 (3.8%) were called active. Shown is part of a subset that was picked to be rich in actives.
Can you answer with just one of these options? active, inactive

Known results for molecules:
[[record]]
molecule = "CC1=C(C)C(=O)C(C(CCCCCC(=O)O)c2ccccc2)=C(C)C1=O (centres undefined)"
class = "inactive"

[[record]]
molecule = "C[C@@H]1CCCCO[C@H](CN(C)Cc2ccc(C(=O)O)cc2)[C@H](C)CN([C@H](C)CO)C(=O)c2cc(NC(=O)Nc3ccc(F)cc3)ccc2O1"
class = "inactive"

[[record]]
molecule = "CC1=CC(=O)c2ccccc2C1=O"
class = "inactive"

[[record]]
molecule = "O=C(C[C@@H]1C[C@@H]2c3cc(NC(=O)Nc4ccc(C(F)(F)F)cc4)ccc3O[C@@H]2[C@@H](CO)O1)NCCc1ccccc1"
class = "inactive"


Which outcome was entered for the molecule O=C(C[C@H]1C[C@@H]2c3cc(NC(=O)Nc4ccc(C(F)(F)F)cc4)ccc3O[C@@H]2[C@@H](CO)O1)NCc1ccc(Cl)cc1 in this test?
inactive

Ok, now CC1=C(C)C(=O)C(CCCCCCCCCC[P+](c2ccccc2)(c2ccccc2)c2ccccc2)=CC1=O
active

Ok, now O=C(Nc1ccc(C(F)(F)F)cc1)Nc1ccc2c(c1)[C@H]1C[C@@H](CC(=O)N3CCc4ccccc4C3)O[C@H](CO)[C@H]1O2
inactive

Ok, now O=C(C[C@@H]1C[C@H]2c3cc(NC(=O)Nc4ccc(C(F)(F)F)cc4)ccc3O[C@H]2[C@H](CO)O1)NCCc1ccccc1
active

Ok, now COC1=C(OC)C(=O)C(C/C=C(\C)CC/C=C(\C)CC/C=C(\C)CC/C=C(/C)CC/C=C(\C)CC/C=C(\C)CC/C=C(\C)CC/C=C(\C)CC/C=C(\C)CCC=C(C)C)=C(C)C1=O
inactive

Ok, now COC(=O)CCCCCCC(=O)Nc1ccc(NC(=O)CCCC[P+](c2ccccc2)(c2ccccc2)c2ccccc2)cc1
inactive

Ok, now COc1ccc(S(=O)(=O)Nc2ccc3c(c2)C(=O)N([C@H](C)CO)C[C@@H](C)[C@H](CN(C)Cc2ccc(Cl)c(Cl)c2)O3)cc1
active

Ok, now O=C(Nc1ccc(C(F)(F)F)cc1)Nc1ccc2c(c1)[C@H]1C[C@H](CC(=O)N3CCc4ccccc4C3)O[C@H](CO)[C@H]1O2
active

Ok, now O=C(Nc1ccc(C(F)(F)F)cc1)Nc1ccc2c(c1)[C@@H]1C[C@@H](CC(=O)N3CCc4ccccc4C3)O[C@H](CO)[C@@H]1O2
inactive

Ok, now COC1=C(OC)C(=O)C(C/C=C(\C)CC/C=C(\C)CC/C=C(\C)CC/C=C(\C)CC/C=C(\C)CC/C=C(\C)CC/C=C(\C)CC/C=C(\C)CC/C=C(\C)CCC=C(C)C)=C(C)C1=O
inactive

====

Tested on: HSkMC
Assay: cytotoxicity call (relative viability < 0.9)
Settings: 10 µM
Hit rate of the full screen: of about 39,000 compounds, about 1,500 (3.8%) were called active. Only a selection was taken, and actives are over-represented in it overall.
Can you answer with just one of these options? t for active, f for inactive

Known results for molecules:
[[record]]
smiles_data = "C[C@@H]1CCCCO[C@H](CN(C)C(=O)CCC(F)(F)F)[C@H](C)CN([C@H](C)CO)C(=O)c2cc(NC(=O)CCC(F)(F)F)ccc2O1"
class = "f"

[[record]]
smiles_data = "C[C@@H]1CN([C@@H](C)CO)S(=O)(=O)c2ccc(-c3cncnc3)cc2O[C@@H]1CN(C)C(=O)C1CCCCC1"
class = "f"

[[record]]
smiles_data = "COc1cccc(-c2ccc3c(c2)O[C@@H](CN(C)C(=O)C2CCOCC2)[C@@H](C)CN([C@@H](C)CO)S3(=O)=O)c1"
class = "f"

[[record]]
smiles_data = "O=C1CN(S(=O)(=O)Cc2ccccc2)C[C@@H]2[C@@H](c3ccc(C#Cc4ccc(F)cc4)cc3)[C@H](CO)N12"
class = "f"

[[record]]
smiles_data = "O=C(C[C@@H]1CC[C@H]2[C@@H](COC[C@@H](O)CN2S(=O)(=O)c2ccc(Oc3ccccc3)cc2)O1)NC1CCC1"
class = "f"

[[record]]
smiles_data = "Cc1noc(C)c1NC(=O)Nc1cccc2c1O[C@@H](CN(C)C(=O)NC(C)C)[C@H](C)CN([C@H](C)CO)C2=O"
class = "f"


Continue with the molecule presented below.
Which outcome was entered for the molecule O=C1CN(S(=O)(=O)Cc2ccccc2)C[C@@H]2[C@@H](c3ccc(C#Cc4ccc(F)cc4)cc3)[C@@H](CO)N12 in this test?
t

====

Test system: HSkMC (human skeletal muscle cells)
Assay: cytotoxicity call (relative viability < 0.9)
Settings: 10 µM
The whole screen tested about 39,000 compounds, of which about 1,500 (3.8%) were called active. Shown is part of a subset that was picked to be rich in actives.
Can you answer with just one of these options? true (1) = active, false (0) = inactive

[[record]]
molecule = "CCOC(=O)N(C)C[C@H]1OCc2cn(nn2)CCCC(=O)N([C@@H](C)CO)C[C@@H]1C"
class = "false (0)"

[[record]]
molecule = "C[C@@H]1CCCCO[C@@H](CN(C)Cc2ccccc2)[C@H](C)CN([C@@H](C)CO)C(=O)c2cc(NC(=O)Nc3ccc(C(F)(F)F)cc3)ccc2O1"
class = "false (0)"

[[record]]
molecule = "COc1ccc(C[C@H](N)C(=O)N[C@H]2[C@@H](O)[C@H](n3cnc4c(N(C)C)ncnc43)O[C@@H]2CO)cc1"
class = "true (1)"

[[record]]
molecule = "COc1ccc(CN(C)C[C@@H]2OCCCC[C@@H](C)Oc3ccc(NC(=O)c4ccccc4)cc3C(=O)N([C@@H](C)CO)C[C@@H]2C)cc1"
class = "false (0)"

[[record]]
molecule = "Cc1ccc(S(=O)(=O)N(C)C[C@@H]2OCCCC[C@H](C)Oc3ccc(NS(=O)(=O)c4ccc(Cl)cc4)cc3C(=O)N([C@H](C)CO)C[C@@H]2C)cc1"
class = "false (0)"

[[record]]
molecule = "COc1ccc(S(=O)(=O)Nc2cccc3c2O[C@@H](CN(C)S(=O)(=O)c2c(C)noc2C)[C@H](C)CN([C@H](C)CO)C3=O)cc1"
class = "false (0)"


Which outcome was entered for the molecule C[C@@H]1CCCCO[C@@H](CN(C)CC2CCCCC2)[C@@H](C)CN([C@H](C)CO)C(=O)c2cc(NC(=O)Nc3ccc4c(c3)OCO4)ccc2O1 in this test?
false (0)

Ok, now Nc1ncnc2c1ncn2[C@H]1O[C@@H](CO)[C@H](O)[C@@H]1S
false (0)

Ok, now C[C@H]1CCCCO[C@@H](CN(C)CC2CCCCC2)[C@@H](C)CN([C@@H](C)CO)C(=O)c2cc(NC(=O)Nc3ccc4c(c3)OCO4)ccc2O1
true (1)

Ok, now Nc1ncnc2c1ncn2C1OC(CO)C(O)C1O (stereo not drawn)
false (0)

Ok, now COc1nc(N)nc2c1ncn2[C@@H]1O[C@H](CO)[C@@H](O)[C@@H]1O
false (0)

Ok, now C[C@@H]1CN([C@H](C)CO)C(=O)Cc2cc(NC(=O)Nc3ccc(C(F)(F)F)cc3)ccc2O[C@H]1CN(C)S(=O)(=O)c1ccc(Cl)cc1
true (1)

Ok, now COc1ccc(C[C@H](N)C(=O)N[C@H]2[C@@H](O)[C@@H](n3cnc4c(N(C)C)ncnc43)O[C@@H]2CO)cc1
true (1)

Ok, now C[C@H]1CN([C@@H](C)CO)C(=O)c2c(c3ccccc3n2C)-c2ccccc2CO[C@H]1CN(C)C(=O)Nc1ccccc1
false (0)

Ok, now C[C@@H]1CN([C@H](C)CO)C(=O)c2cc(NC(=O)Nc3ccc(C(F)(F)F)cc3)ccc2O[C@@H](C)CCCCO[C@H]1CN(C)Cc1ccc(C(=O)O)cc1
false (0)

Ok, now C[C@@H]1CCCCO[C@H](CN(C)Cc2ccccc2)[C@H](C)CN([C@H](C)CO)C(=O)c2cc(NC(=O)Nc3ccc(C(F)(F)F)cc3)ccc2O1
true (1)

Ok, now OC[C@H]1O[C@@H](n2cnc3c(NCc4ccco4)ncnc32)[C@H](O)[C@@H]1O
false (0)

Ok, now OS(=O)(=O)c1ccc(cc1)/C/1=C\2/N/C(=C(\C3=N/C(=C(/c4ccc(cc4)S(=O)(=O)O)c4ccc([nH]4)/C(=C\4/C=CC1=N4)c1ccc(cc1)S(=O)(=O)O)C=C3)c1ccc(cc1)S(=O)(=O)O)C=C2
false (0)
